System: Pannonia vine variety
Assay: Berry yield and sugar content of vine, Pannonia (Example 33)
Type: in vivo
Procedure: Vine stands were sprayed with the compositions according to the invention to examine their effects exerted on the berry yield and sugar content. The compositions, diluted with water, were sprayed three times onto the plants. The first treatment was performed prior to flowering, the second one three weeks later, and the third one six weeks after the first one. The dose applied was 2 kg/ha in each of the treatments. […]
Strictly below 20% in Sugar content, increase: criterion met. Otherwise: criterion not met.

Answered examples (4):
compound	assigned-label
CCC[n+]1c[nH]c2ccccc21.[Br-] [N--(n-Propyl)-benzimidazolium bromide, N-(n-propyl)-benzimidazolium bromide]	criterion not met
N=C(N)N.N=C(N)N.Oc1nnc(O)c2ccccc12	criterion not met
C[N+](C)(C)CCCl.[Cl-] [CCC, 2-chloroethyltrimethyl-ammonium chloride]	criterion not met
O=P(O)(O)CCCl	criterion met

Sugar content, increase under 20%? Item: `O=C(O)c1ccccc1C(=O)Nc1ccccc1` criterion met
